Just for reference, paper PMC9482650 is where these values come from.

Biological target: T1, DLG3_3, Q92796
T1 sequence (Q92796 374-475, limits assumed, looked up): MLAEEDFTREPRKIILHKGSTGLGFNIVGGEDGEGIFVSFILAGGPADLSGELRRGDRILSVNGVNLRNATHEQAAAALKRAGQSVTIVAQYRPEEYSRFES
Test: holdup assay
Design: key: below the threshold = too weak to quantify, mostly under pKd 3.1 to 4
Details: plain residues with an end cap or a label only (N-terminal biotin on a linker: ado-ado)
MEASUREMENT_KIND: pKd

Below, 8 binders whose answers are already recorded.
binder="AHGSTRDQSI [KCNB1, Q14721]" measurement=3.75
binder="DSEEELPTRL [GRK6, P43250]" measurement="below the threshold"
binder="SGDGKTSVWI [GJC1, P36383]" measurement="below the threshold"
binder="NTALVESEDL [PALLS, Q8WX93;Q8WX93-1]" measurement="below the threshold"
binder="IGHEDLETAV [DGKI, O75912]" measurement=4.02
binder="SRPHTNETSL [MCC, P23508]" measurement=3.95
binder="VISSDDLTEL [CAPN6, Q9Y6Q1]" measurement="below the threshold"
binder="DYSNLRETDI [ADRA1D, P25100]" measurement="below the threshold"

Now look at this entry.
Given the binder PLPPEEESWV [GAS2L2, Q8NHY3] , what is its reported pKd? below the threshold
